Cited source for all entries: BindingDB's records for patent US12202839

biological target: Protein tyrosine phosphatase type IVA 3 (Homo sapiens); assay: PTP4A3 Enzymatic Assay
Sequence (O75365 whole entry): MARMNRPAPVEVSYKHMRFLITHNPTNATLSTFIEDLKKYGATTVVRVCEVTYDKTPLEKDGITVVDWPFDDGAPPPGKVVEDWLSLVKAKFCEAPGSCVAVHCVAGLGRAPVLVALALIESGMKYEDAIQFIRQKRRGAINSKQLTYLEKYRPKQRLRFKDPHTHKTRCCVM
property label: IC50

Q: What measured IC50 goes with `O=C1NC(=O)c2sc(-c3ccccc3)cc2C1=O` ?
Result: 0.162 µM
